experimental target: HLA-A*02:01 (Homo sapiens, UniProt P04439, D140Y/D185E/D98H/E176V/E277Q/G131W/G231S/I119V/I121R/I166T/I218V/L300P/L318F/N151K/N90K/P208A/P217A/Q86G/Q94H/R138H/R169H/T345S)
method summary: MHC binding assay (UV-ligand exchange, ELISA, peptide exchange yield)
run parameters: binding of HLA-class I restricted peptides to HLA-A*02:01
value type: Peptide exchange (MHC class I binding score, peptide exchange yield)

Worked set:
substance: 373 (SLLEDKGLAEV; listed as Homo sapiens) [compound 373]
assay value: ″++″ (≥20% = ++)

substance: 318 (GLINTGVLSV; listed as Homo sapiens) [compound 318]
assay value: ″++″ (≥20% = ++)

substance: 574 (YLLQEPPRTV; listed as Homo sapiens) [compound 574]
assay value: ″++″ (≥20% = ++)

substance: 481 (GLIEDYEALL; listed as Homo sapiens) [compound 481]
assay value: ″+++″ (≥50% = +++)

substance: 229 (RLPGPLGTV; listed as Homo sapiens) [compound 229]
assay value: ″++″ (≥20% = ++)

substance: 116 (YHIDEEVGF; listed as Homo sapiens) [compound 116]
assay value: ″+″ (≥10% = +)

What Peptide exchange (MHC class I binding score, peptide exchange yield) value was documented for this substance, 407 (YLMDLINFL; listed as Homo sapiens) [compound 407] ?
″+++″ (≥50% = +++)

What Peptide exchange (MHC class I binding score, peptide exchange yield) value was documented for this substance, 520 (LAVHPSGVAL; listed as Homo sapiens) [compound 520] ?
″+″ (≥10% = +)

###

experimental target: HLA-A*02:01 (Homo sapiens, UniProt P04439, D140Y/D185E/D98H/E176V/E277Q/G131W/G231S/I119V/I121R/I166T/I218V/L300P/L318F/N151K/N90K/P208A/P217A/Q86G/Q94H/R138H/R169H/T345S)
method summary: MHC binding assay (UV-ligand exchange, ELISA, peptide exchange yield)
run parameters: binding of HLA-class I restricted peptides to HLA-A*02:01
value type: Peptide exchange (MHC class I binding score, peptide exchange yield)

Worked set:
substance: 590 (SLIEKLWQT; listed as Homo sapiens) [compound 590]
assay value: ″++″ (≥20% = ++)
--
substance: 71 (GILARIASV; listed as Homo sapiens) [compound 71]
assay value: ″+++″ (≥50% = +++)
--
substance: 484 (SLIEKVTQL; listed as Homo sapiens) [compound 484]
assay value: ″+++″ (≥50% = +++)
--
substance: 505 (SLAPGDVVRQV; listed as Homo sapiens) [compound 505]
assay value: ″++″ (≥20% = ++)

Would you kindly look at the next entry?
What Peptide exchange (MHC class I binding score, peptide exchange yield) value was documented for this substance, 286 (YLFPGIPEL; listed as Homo sapiens) [compound 286] ?
″+++″ (≥50% = +++)

###

experimental target: HLA-A*02:01 (Homo sapiens, UniProt P04439, D140Y/D185E/D98H/E176V/E277Q/G131W/G231S/I119V/I121R/I166T/I218V/L300P/L318F/N151K/N90K/P208A/P217A/Q86G/Q94H/R138H/R169H/T345S)
method summary: MHC binding assay (UV-ligand exchange, ELISA, peptide exchange yield)
run parameters: binding of HLA-class I restricted peptides to HLA-A*02:01
value type: Peptide exchange (MHC class I binding score, peptide exchange yield)

Worked set:
substance: 507 (KLIDDQDISISL; listed as Homo sapiens) [compound 507]
assay value: ″+++″ (≥50% = +++)

substance: 243 (LLLNELPSV; listed as Homo sapiens) [compound 243]
assay value: ″+++″ (≥50% = +++)

substance: 472 (KLLEVSDDPQV; listed as Homo sapiens) [compound 472]
assay value: ″+++″ (≥50% = +++)

substance: 362 (TLYGLSVLL; listed as Homo sapiens) [compound 362]
assay value: ″+++″ (≥50% = +++)

substance: 538 (LLLAHIIAL; listed as Homo sapiens) [compound 538]
assay value: ″++″ (≥20% = ++)

What Peptide exchange (MHC class I binding score, peptide exchange yield) value was documented for this substance, 128 (YLFDDPLSAV; listed as Homo sapiens) [compound 128] ?
″++″ (≥20% = ++)

What Peptide exchange (MHC class I binding score, peptide exchange yield) value was documented for this substance, 202 (ALLDQQGSRWTL; listed as Homo sapiens) [compound 202] ?
″+++″ (≥50% = +++)
